Below is a list of entries, each paired with its recorded IC50 value.
- SUBJECT_OF_TEST: T1, human TIGIT on CHOK1-huTIGIT-2A3 cells (human, UniProt Q495A1 22-244)
- T1 construct: whole, on cells; also called cells expressing the human TIGIT
- T1 sequence (looked up): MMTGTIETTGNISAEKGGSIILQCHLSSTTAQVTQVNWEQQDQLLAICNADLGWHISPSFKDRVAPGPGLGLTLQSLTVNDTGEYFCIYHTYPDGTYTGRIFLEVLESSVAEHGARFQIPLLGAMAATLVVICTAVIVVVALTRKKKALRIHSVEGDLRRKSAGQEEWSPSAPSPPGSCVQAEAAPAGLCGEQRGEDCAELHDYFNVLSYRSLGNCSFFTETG
- ASSAY_DETAILS: flow cytometry competition with huCD155-moFc on CHOK1-huTIGIT-2A3 cells
REPORTED_ENDPOINT: IC50 (µg/mL)

BINDER	REPORTED_ENDPOINT	RECORDED_VALUE
900423 (antibody, human IgG1, kappa, L234A L235A, V domains shown, also called anti-TIGIT chimeric antibody 900423) VH: DVQLQESGPGLVKPSQSLSLTCTVTGYSITSDYAWNWIRQFPGNRLEWMGYISYSGAPRYNPSLKSRISITRDTSKNQFFLQLSFVTTEDTATYYCASLGTDYYAMDYWGQGTSVIVSS VL: DIVMTQSHKFMFTSVGDRVSITCKASQHVSNAVAWYQQKPGQSPKLLIHSASYRYTGVPDRFIGRGSGTDFTFTISSVQAEDLAVYYCQQYYSLPWTFGGGTKLEIKR	IC50	0.065
HB0033 (antibody, human IgG1, kappa, V domains shown, Humanized anti-TIGIT IgG1; also called 900476) VH: QVQLQESGPGLVKPSETLSLTCTVSGYSITSDYAWIWIRQPPGNKLEWIGYITSSGSTYYNPSLKSRVTFSVDTSKNQFSLKLSSVTAADTATYYCARLDFGNYGGAMDYWGQGTLVTVSS VL: DIQMTQSPSSLSASVGDRVTITCKASQHVSTALAWYQQKPGKAPKLLIYSASYLQSGVPSRFSGSRSGTDFTLTISSLQPEDFATYYCQQHYITPYTFGQGTKLEIKR	IC50	0.056
HB0032 (antibody, human IgG1, kappa, V domains shown, Humanized anti-TIGIT IgG1; also called 900466) VH: QVQLQESGPGLVKPSETLSLTCTVSGYSITSDYAWIWIRQPPGKKLEWIGYITSSGSTYYNPSLKSRVTFSVDTSKNQFSLKLSSVTAADTATYYCARLDFGNYGGAMDYWGQGTLVTVSS VL: DIQMTQSPSSLSASVGDRVTITCKASQHVSTAVNWYQQKPGKAPKLLIYSASYRQSGVPSRFSGSGSGTDFTLTISSLQPEDFATYYCQQHYITPYTFGQGTKLEIKR	IC50	0.0919
HB0031 (antibody, human IgG1, kappa, V domains shown, Humanized anti-TIGIT IgG1; also called 900464) VH: QVQLQESGPGLVKPSETLSLTCTVSGYSITSDYAWIWIRQPPGKGLEWIGYITSSGSTYYNPSLKSRVTFSVDTSKNQFSLKLSSVTAADTATYYCARLDFGNYGGAMDYWGQGTLVTVSS VL: DIQMTQSPSSLSASVGDRVTITCKASQHVSTALAWYQQKPGKAPKLLIYSASYLQSGVPSRFSGSRSGTDFTLTISSLQPEDFATYYCQQHYITPYTFGQGTKLEIKR	IC50	0.0665
HB0030 (antibody, human IgG1, kappa, V domains shown, Humanized anti-TIGIT IgG1; also called 900461; TIGIT parental monoclonal antibody) VH: QVQLQESGPGLVKPSETLSLTCTVSGYSITSDYAWIWIRQPPGKGLEWIGYITSSGSTYYNPSLKSRVTFSVDTSKNQFSLKLSSVTAADTATYYCARLDFGNYGGAMDYWGQGTLVTVSS VL: DIQMTQSPSSLSASVGDRVTITCRASQHVSTAVNWYQQKPGKAPKLLIYSASYLYSGVPSRFSGSRSGTDFTLTISSLQPEDFATYYCQQHYITPYTFGQGTKLEIKR	IC50	0.0573
